TEST TARGET: Serine/threonine-protein kinase pim-2 (Homo sapiens)
Sequence (Q9P1W9 whole entry): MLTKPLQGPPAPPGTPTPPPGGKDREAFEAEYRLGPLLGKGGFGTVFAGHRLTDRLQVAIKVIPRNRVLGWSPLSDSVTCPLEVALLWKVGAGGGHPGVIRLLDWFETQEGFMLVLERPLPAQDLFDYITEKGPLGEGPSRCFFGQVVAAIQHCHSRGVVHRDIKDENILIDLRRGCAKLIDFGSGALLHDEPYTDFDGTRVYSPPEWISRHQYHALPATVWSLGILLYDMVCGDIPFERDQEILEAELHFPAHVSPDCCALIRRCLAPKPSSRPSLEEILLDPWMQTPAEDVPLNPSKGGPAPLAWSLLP
TEST SUMMARY: Inhibition of recombinant human Pim2 (2 to end residues) using RSRHSSYPAGT as substrate incubated for 40 mins in presence of [gamma33P]ATP by scintillation counting based radiometry assay
ENDPOINT LABEL: pIC50
Notebook: values listed as pIC50 are -log10 of the concentration (mol/L).

Hello, please tell me recorded pIC50 for this one: CC(C)Oc1cc(F)ccc1Nc1ncnc2ccc(-c3ccc(C(=O)N4CCNCC4)cc3)nc12
6.63

* * *

TEST TARGET: Serine/threonine-protein kinase pim-1 (Homo sapiens, UniProt P11309)
Sequence (P11309 whole entry): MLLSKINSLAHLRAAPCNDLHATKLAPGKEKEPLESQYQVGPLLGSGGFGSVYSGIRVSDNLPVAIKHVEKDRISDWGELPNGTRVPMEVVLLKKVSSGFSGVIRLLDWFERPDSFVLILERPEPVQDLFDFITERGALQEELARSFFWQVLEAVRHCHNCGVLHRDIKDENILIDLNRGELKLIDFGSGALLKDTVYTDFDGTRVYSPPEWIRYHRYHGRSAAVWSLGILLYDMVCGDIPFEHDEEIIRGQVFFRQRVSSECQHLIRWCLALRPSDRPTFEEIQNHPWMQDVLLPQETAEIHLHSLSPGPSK
TEST SUMMARY: Inhibition of full length recombinant human PIM1 using KKRNRTLTV as substrate incubated for 40 mins in presence of [gamma33P]ATP by scintillation counting based radiometry assay
ENDPOINT LABEL: IC50 (nM)
Entry rule: numbers only, all in nM.

Hello, please tell me recorded IC50 for this one: CC(C)Oc1cc(F)ccc1Nc1ncnc2ccc(-c3ccc(C(=O)N4CCNCC4)cc3)nc12
43
